These measurements were taken from patent US10213451B2.

test system: ES2(ovarian) cells; assay: MTT assay ES2; type: cell-based, human; details: ES2 cells
parameter: IC50 (µg/mL)
Write the answer as a number in µg/mL, unit excluded.

Name the recorded IC50 for CC=C(C)C(=O)OC1C(OC(=O)C(C)=CC)C23C(O)CC4(C)C5(C)CCC6C(C)(C)C(OC7OC(C(=O)O)C(O)C(OC8OC(CO)C(O)C(O)C8OC8OC(C)C(O)C(O)C8OC8OC(C)C(O)C(O)C8O)C7OC7OC(CO)C(O)C(O)C7O)CCC6(C)C5CCC4(OC2O)C3CC1(C)C (stereo not shown) .
6.5

Quick one: IC50 for CC1O[C@@H](OC2[C@H](OC3[C@H](O[C@H]4C(O[C@@H]5OC(CO)[C@H](O)[C@@H](O)C5O)[C@H](O[C@H]5CC[C@@]6(C)C(CC[C@]7(C)C6CC[C@]68O[C@H](O)[C@]9(C6CC(C)(C)[C@@H](OC(=O)c6ccccc6)[C@@H]9OC(=O)C=Cc6ccccc6)[C@H](O)[C@H](O)[C@]87C)[C@@]5(C)CO)OC(C(=O)O)[C@H]4O)OC(CO)[C@H](O)[C@H]3O)OC(C)[C@H](O)[C@@H]2O)C(O)[C@@H](O)[C@H]1O (stereo partly shown) ?
20

Fill in the blank: the reported IC50 of CC=C(C)C(=O)OC1C(OC(=O)c2ccccc2)C2(CO)C(CC1(C)C)C1=CCC3C4(C)CCC(OC5OC(C(=O)O)C(O)C(OC6OC(CO)C(O)C6O)C5OC5OC(CO)C(O)C(O)C5O)C(C)(C)C4CCC3(C)C1(C)C(O)C2O (stereo not shown) is ____.
20

For CC1(C)CC2C3=CCC4C5(C)CCC(OC6OC(C(=O)O)C(O)C(OC7OCC(O)C(O)C7O)C6OC6OC(CO)C(O)C(O)C6O)C(C)(C)C5CCC4(C)C3(C)CC(O)C2(CO)C(OC(=O)c2ccccc2)C1OC(=O)c1ccccc1 (stereo not shown) , what is its reported IC50?
16

====

tested on: red blood cells (hemolysis); test: Hemolytic activity; format: cell-based, human; conditions: human red blood cells (isolated from whole blood); human red blood cells, FIG. 5A
Text: […]
parameter: IC50 at 60 min (µg/mL)
Record the value in µg/mL, omitting the unit from your answer.

IC50 at 60 min lookup needed for C/C=C(/C)C(=O)O[C@H]1[C@H](OC(=O)/C(C)=C\C)[C@@]2(CO)C(CC1(C)C)C1=CCC3[C@@]4(C)CC[C@H](O[C@@H]5OC(C(=O)O)[C@@H](O)C(O[C@@H]6O[C@@H](CO)C(O)C6O)C5O[C@@H]5OC(CO)[C@H](O)C(O)C5O)C(C)(C)C4CC[C@@]3(C)[C@]1(C)[C@@H](O)[C@H]2O (stereo partly shown) , thanks.
1

====

Provide the recorded inhibition at 10 µg/mL for the entries that follow.
system: Fibronectin secretion from skin SK-Mel-5 cells; experiment: Fibronectin secretion (Western blot), SK-MEL-5 cells; format: cell-based, human; conditions: Homo sapiens, 10 ug/ml
Output spec: scalar in %, unitless text.

Item under review: C/C=C(/C)C(=O)O[C@H]1[C@H](OC(=O)/C(C)=C\C)[C@@]23C(CC1(C)C)[C@]1(CCC4[C@@]5(C)CC[C@H](O)C(C)(C)C5CC[C@@]4(C)[C@]1(C)C[C@H]2O)O[C@@H]3O (stereo partly drawn) [ACH-Mb5] . Reported inhibition at 10 µg/mL?
20

Look at this compound and give its reported inhibition at 10 µg/mL. C/C=C(/C)C(=O)O[C@H]1[C@H](OC(=O)/C(C)=C\C)[C@@]2(CO)C(CC1(C)C)C1=CCC3[C@@]4(C)CC[C@H](O[C@@H]5OC(C(=O)O)[C@@H](O)C(O[C@@H]6O[C@@H](CO)C(O)C6O)C5O[C@@H]5OC(CO)[C@H](O)C(O)C5O)C(C)(C)C4CC[C@@]3(C)[C@]1(C)[C@@H](O)[C@H]2O (stereo partly drawn) [Xanifolia-Y]
11

I have this compound here, C/C=C(/C)C(=O)O[C@H]1[C@H](OC(=O)/C(C)=C\C)[C@@]2(CO)C(CC1(C)C)C1=CCC3[C@@]4(C)CC[C@H](O[C@@H]5OC(C(=O)O)[C@@H](O)C(O[C@@H]6OC[C@@H](O)C(O)C6O)C5O[C@@H]5OC(CO)[C@H](O)C(O)C5O)C(C)(C)C4CC[C@@]3(C)[C@]1(C)C[C@H]2O (stereo partly drawn) [Ba1] , and I need its recorded inhibition at 10 µg/mL.
10

====

I'd be grateful if you could share measured inhibition at 10 µg/mL for these entries.
tested on: Fibronectin secretion from skin SK-Mel-5 cells; assay: Fibronectin secretion (Western blot), SK-MEL-5 cells; assay type: cell-based, human; conditions: Homo sapiens, 10 ug/ml
Write down the numeric answer in % and omit the unit.

Need inhibition at 10 µg/mL, item C/C=C(/C)C(=O)O[C@@H]1C(O)[C@H](O[C@H]2[C@H](OC(C)=O)[C@@]3(CO)C(CC2(C)C)C2=CCC4[C@@]5(C)CC[C@H](O[C@@H]6OC(C(=O)O)[C@@H](O)[C@@H](O[C@@H]7O[C@@H](CO)[C@@H](O)C7O)C6O[C@@H]6OC(CO)[C@H](O)[C@@H](O)C6O)C(C)(C)C5CC[C@@]4(C)[C@]2(C)C[C@H]3O)OC(C)[C@@H]1OC(=O)/C(C)=C\C (some centres unmarked)
10

Item under review: C/C=C(/C)C(=O)O[C@H]1[C@H](OC(=O)C(C)C)[C@@]2(CO)C(CC1(C)C)C1=CCC3[C@@]4(C)CC[C@H](O[C@@H]5OC(C(=O)O)[C@@H](O)C(O[C@@H]6O[C@@H](CO)C(O)C6O)C5O[C@@H]5OC(CO)[C@H](O)C(O)C5O)C(C)(C)C4CC[C@@]3(C)[C@]1(C)[C@@H](O)[C@H]2O (some centres unmarked) . Reported inhibition at 10 µg/mL?
27
